Measured values drawn from patent US20170326246A1 for this set.

target-or-system: gp120 of viral strain Ca10-3 (CRF01) (HIV, strain Ca10-3 (CRF01))
test: cell-based or functional assay
[ ]: non-standard residue; d: D form. Bip = N[C@@H](Cc1ccc(-c2ccccc2)cc1)C(=O)O; Tpa = thiopropionic acid
# EC50 (antiviral activity, TZM-bl cells, luciferase) per entry
Give the value, in units of nM, as a plain number.

# binder, unit-symbol, reported-value
records = [
    ("mCD4.3-PS1 (not fully specified; N-terminal gamma-aminobutyric acid (gammaAbu) acylated with 3-thiopropionyl (from SATP); all six Tyr are sulfotyrosine (YSO3); N-terminal Tpa; D-proline at position 21; U1 (4-cyclohexylmethoxy-L-phenylalanine) at position 23; C-terminal amide; Lys5 N-epsilon carries the PEO2-maleimide linker bound to the thiol of the PS1 chain) peptide 1: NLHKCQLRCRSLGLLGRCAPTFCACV peptide 2: SYDYSYDYSYDYS", "nM", 0.076),
    ("mCD4.1-PS1 (N-terminal gamma-aminobutyric acid (gammaAbu) acylated with 3-thiopropionyl (from SATP); all six Tyr are sulfotyrosine (YSO3); N-terminal Tpa (thiopropionic acid); Bip at position 23; C-terminal …; Lys5 N-epsilon carries the PEO2-maleimide linker bound to the thiol of the PS1 chain) peptide 1: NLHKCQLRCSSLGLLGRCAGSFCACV peptide 2: SYDYSYDYSYDYS", "nM", 0.57),
]

Note: attention shifts to another entry.
Look up EC50 (antiviral activity, TZM-bl cells, luciferase) for this binder: Tpa-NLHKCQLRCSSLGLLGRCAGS[Bip]CACV-NH2 (disulfide (positions not given here); also: three disulphide bridges, pairing not given here) [mCD4.1]
96
